- Tested on: MRSE
- measurementProtocol: High-throughput screening of 4989 compounds with human lysozyme
- Type: cell-based, Staphylococcus epidermis
- testConditions: OD600 at 24-hour; compound 2.5 μM without lysozyme
Listed here: items and their measured MRSE Drug only.
measuredParameter: MRSE Drug only

{"compound": "CNC[C@H](O)[C@@H](O)[C@H](O)[C@H](O)CO.Nc1nc(-n2cc(C(=O)O)c(=O)c3cc(F)c(N4CC(O)C4)c(Cl)c32)c(F)cc1F [Delafloxacin (meglumine)]", "measuredParameter": "MRSE Drug only", "observedResult": 0.1374}
{"compound": "C#Cc1cccc(Nc2nc3ccccc3nc2Nc2cccc(C#C)c2)c1.Cl.Cl [TD52 (dihydrochloride)]", "measuredParameter": "MRSE Drug only", "observedResult": 0.402}
{"compound": "CCOC(=O)c1ccc(O)c(O)c1 [Ethyl 3,4-dihydroxybenzoate]", "measuredParameter": "MRSE Drug only", "observedResult": 0.6328}
{"compound": "CC(=O)c1c(O)cc(O)c(C(C)=O)c1O [2,4-Diacetylphloroglucinol]", "measuredParameter": "MRSE Drug only", "observedResult": 0.09}
{"compound": "C=CC1=C(C(=O)O)N2C(=O)[C@@H](NC(=O)/C(=N\\O)c3csc(N)n3)[C@H]2SC1 [cefdinir, Cefdinir]", "measuredParameter": "MRSE Drug only", "observedResult": 0.6206}
{"compound": "CO[C@H]1/C=C/O[C@@]2(C)Oc3c(C)c(O)c4c(c3C2=O)C(=O)C=C(NC(=O)/C(C)=C\\C=C\\[C@H](C)[C@H](O)[C@@H](C)[C@@H](O)[C@@H](C)[C@H](OC(C)=O)[C@@H]1C)C4=O [Rifamycin S]", "measuredParameter": "MRSE Drug only", "observedResult": 0.5935}
{"compound": "CCC(=O)c1ccc(O)cc1 [Paroxypropione]", "measuredParameter": "MRSE Drug only", "observedResult": 0.5254}
